FYI, the data here is from patent US20030171544A1.

# Tested on: alcohol dehydrogenase (ADHF1)
# test.summary: Reduction of ketones with lyophilized recombinant ADHF1 crude extract, GC analysis
# Type: biochemical, Pseudomonas fluorescens (DSM 50106)
# condition.info: Table 1; GC analysis; 6.4 μmol substrate, 1.25 mg enzyme crude extract, 0.1 M Tris pH 8.0, 20% (v/v) isopropanol, room temperature; time 20-21 h
metric: Conversion (%)
Expressed in %, but write only the number.

O=C1CCCCCC1 [Cycloheptanone]
51

GET /values?item= O=C1CCCC1 [Cyclopentanone] &system= alcohol dehydrogenase (ADHF1) returns Conversion: 53

Given the compound O=C1CCCCC1 [Cyclohexanone] and test system alcohol dehydrogenase (ADHF1), the measured Conversion is 100
